Numbers sourced from ChEMBL document CHEMBL5058577.

# Tested on: HEK-293T
# assayText: Multiplex assay against HEK293T
# Type: toxicity, cell-based
# reportedConditions: human, 12 h, 1 µM, compound concentration 1 uM, replicate 1
metricName: Population Healthy Nuclei (%)
Write down the numeric answer in % and omit the unit.

Illustrative cases are given below, each with its answer.
molecule	obsValue
COc1ccccc1N1CCN(CCCCNC(=O)c2ccc3ccccc3c2)CC1.Cl	81
C[C@@H]1C[C@H]2[C@@H]3CCC4=CC(=O)C=C[C@]4(C)[C@@]3(F)[C@@H](O)C[C@]2(C)[C@@]1(O)C(=O)CO [DEXAMETHASONE]	78
N#Cc1c(N)nc(SCc2csc(-c3ccc(Cl)cc3)n2)c(C#N)c1-c1ccc(OCCO)cc1 [CAPADENOSON]	79

Query: Recorded Population Healthy Nuclei (%) for Cl.Clc1ccc2nsnc2c1NC1=NCCN1 [TIZANIDINE HYDROCHLORIDE] with HEK-293T, please?
Reply: 80

Query: Lab note: need Population Healthy Nuclei (%) for O=S(=O)(c1ccccc1)c1cnc2c(N3CCNCC3)cccc2c1 [INTEPIRDINE] on HEK-293T, anyone have it?
Reply: 80

Query: Provide value of Population Healthy Nuclei (%) for this record tested with HEK-293T: CCCC(CCC)C(=O)O [VALPROIC ACID]
Reply: 81
